Molecular target: human OT7T175 (metastin receptor) (human, UniProt Q969F8 1-398)
Sequence (Q969F8 whole entry L364H): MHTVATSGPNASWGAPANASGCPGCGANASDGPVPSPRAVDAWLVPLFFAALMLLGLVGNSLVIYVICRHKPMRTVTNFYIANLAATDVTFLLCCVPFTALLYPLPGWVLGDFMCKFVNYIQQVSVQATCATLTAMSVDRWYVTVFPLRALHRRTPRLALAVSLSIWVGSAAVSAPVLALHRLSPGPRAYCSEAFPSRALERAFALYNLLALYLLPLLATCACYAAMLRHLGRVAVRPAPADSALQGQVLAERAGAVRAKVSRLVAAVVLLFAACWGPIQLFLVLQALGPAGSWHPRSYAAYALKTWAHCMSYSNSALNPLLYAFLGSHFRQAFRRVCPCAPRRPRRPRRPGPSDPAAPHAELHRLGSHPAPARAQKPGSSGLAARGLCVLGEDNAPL
Test: cell-based or functional assay
Numbered stars: 1 amine (or outer) side, 2 acyl side, 3 side chain; on linkers, the order of the positions; unused ones are H or OH. Square brackets hold non-standard residues; d marks the D form. Ends that are not written are not given here. * marks the point of attachment. Tyr(Me) = O-methyltyrosine, COc1ccc(C[C@H](N[*:1])C(=O)[*:2])cc1; Phe(F5) = N[C@@H](Cc1c(F)c(F)c(F)c(F)c1F)C(=O)O; Fmoc = O=C(OCC1c2ccccc2-c2ccccc21)*
Observation type: intracellular Ca ion level-increasing activity (FLIPR)

Record Compound No. 1: Metastin (peptide) peptide: GTSLSPPPESSGSRQQPGLSAPHSRQIPAPQGAVLVQREKDLPNYNWNSFGLRF . Reported intracellular Ca ion level-increasing activity (FLIPR): 1 specific activity to metastin (1-54)

Record YNWNSFGLRY-NH2 [Compound No. 109: [Tyr10]MS10] . Reported intracellular Ca ion level-increasing activity (FLIPR): 20 specific activity to metastin (1-54)

Record YNWNSFGLR[Tyr(Me)]-NH2 [Compound No. 18: [Tyr(Me)10]MS10] . Reported intracellular Ca ion level-increasing activity (FLIPR): 1 specific activity to metastin (1-54)

Record YNWNSFGLRX (Pya(4)10; C-terminal amide) [Compound No. 17: [Pya(4)10]MS10] . Reported intracellular Ca ion level-increasing activity (FLIPR): 5 specific activity to metastin (1-54)

Record [dY]NWNSFGLRF-NH2 [Compound No. 42: [D-Tyr1]MS10] . Reported intracellular Ca ion level-increasing activity (FLIPR): 30 specific activity to metastin (1-54)

Record YNWNSFGLRX (Cha10; C-terminal amide) [Compound No. 112: [Cha10]MS10] . Reported intracellular Ca ion level-increasing activity (FLIPR): 2 specific activity to metastin (1-54)

Record YNWNSFGLRX (Nal(2)10; C-terminal amide) [Compound No. 110: [Nal(2)10]MS10] . Reported intracellular Ca ion level-increasing activity (FLIPR): 20 specific activity to metastin (1-54)

Record YNWNSFGLXF (Har9; C-terminal amide) [Compound No. 97: [Har9]MS10] . Reported intracellular Ca ion level-increasing activity (FLIPR): 10 specific activity to metastin (1-54)

Record Fmoc-WNSFGLRF-NH2 (SMILES CC(C)C[C@H](NC(=O)CNC(=O)[C@H](Cc1ccccc1)NC(=O)[C@H](CO)NC(=O)[C@H](CC(N)=O)NC(=O)[C@H](Cc1c[nH]c2ccccc12)NC(=O)OCC1c2ccccc2-c2ccccc21)C(=O)N[C@@H](CCCNC(=N)N)C(=O)N[C@@H](Cc1ccccc1)C(N)=O) [Compound No. 54: des(1-2)-Fmoc-MS10] . Reported intracellular Ca ion level-increasing activity (FLIPR): 5 specific activity to metastin (1-54)

Record DNWNSFGLRF-NH2 [Compound No. 75: [Asp1]MS10] . Reported intracellular Ca ion level-increasing activity (FLIPR): 1 specific activity to metastin (1-54)

Record Fmoc-NWNSFGLRF-NH2 [Compound No. 55: des(1)-Fmoc-MS10] . Reported intracellular Ca ion level-increasing activity (FLIPR): 5 specific activity to metastin (1-54)

Record LPNYNWNSFGLRF-NH2 [Compound No. 32: Leu-Pro-Asn-MS10] . Reported intracellular Ca ion level-increasing activity (FLIPR): 10 specific activity to metastin (1-54)

Record YN[dW]NSFGLRF-NH2 [Compound No. 40: [D-Trp3]MS10] . Reported intracellular Ca ion level-increasing activity (FLIPR): 30 specific activity to metastin (1-54)

Record YNWNSFGLR[Phe(F5)]-NH2 [Compound No. 111: [Phe(F5)10]MS10] . Reported intracellular Ca ion level-increasing activity (FLIPR): 3 specific activity to metastin (1-54)
